Subject of test: T1, rhesus serum albumin (rhesus, UniProt Q28522 17-600)
T1 construct: also called RhSA; Rh-SA
Method notes: direct binding ELISA, albumin coated
Binary label based on EC50 with cut-off 50 nM: below gives rule met, not below gives rule not met.

| Binder | Class assignment |
| --- | --- |
| PCSK9-PKE2 tandem 4472_E06 (designed binder, The real molecule is ONE polypeptide: PCSK9 domain, undisclosed linker I (a code letter), PKE2 domain. It is given here as two chains because the linker letters are unknown., also called 4427_E06; not shown: The inter-domain linker) PCSK9 domain: MGVSDVPRDLEVVAATPTSLLISWDAPAEGYGYYRITYGETGGNSPVQEFTVPVSKGTATISGLKPGVDYTITVYAVEFDFPGAGYYHRPISINYRTE PKE2 domain: GVSDVPRDLEVVAATPTSLLISWDAPAVTVRYYRITYGREVQKYSDLGPLYIYQEFTVPGSKSTATISGLKPGVDYTITVYAVTGSGESPASSKPISINYRTEHHHHHH | rule met |
| PCSK9-PKE2 tandem 4472_E09 (designed binder, In the real molecule the two parts given here are one polypeptide, joined by the undisclosed linker A. They are written as two chains only because the linker has no letters., not shown: Linker 'A' joining ...NYRTE of the PCSK9 domain to GVSDV... of the PKE2 domain) PCSK9 domain: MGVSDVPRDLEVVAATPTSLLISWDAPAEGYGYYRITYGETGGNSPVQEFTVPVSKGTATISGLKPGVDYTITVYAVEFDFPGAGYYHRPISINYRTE PKE2 domain: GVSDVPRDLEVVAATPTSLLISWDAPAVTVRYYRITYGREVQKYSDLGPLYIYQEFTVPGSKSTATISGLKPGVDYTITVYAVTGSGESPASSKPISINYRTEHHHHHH | rule met |
| PCSK9-PKE2 tandem 4472_F04 (designed binder, The real molecule is ONE polypeptide: PCSK9 domain, undisclosed linker D, PKE2 domain. It is given here as two chains because the linker letters are unknown., not shown: The inter-domain linker) PCSK9 domain: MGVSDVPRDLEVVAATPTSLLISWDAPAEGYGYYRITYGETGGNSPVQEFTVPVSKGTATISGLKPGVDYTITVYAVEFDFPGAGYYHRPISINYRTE PKE2 domain: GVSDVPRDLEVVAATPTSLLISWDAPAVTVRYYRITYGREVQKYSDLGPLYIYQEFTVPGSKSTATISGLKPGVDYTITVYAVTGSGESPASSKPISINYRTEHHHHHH | rule met |
| PCSK9-PKE2 tandem 4472_E04 (designed binder, not shown: small tags and cut ends, The two parts are one polypeptide in the real molecule, joined by the undisclosed linker Q; they are given here as separate chains.) PCSK9 10Fn3: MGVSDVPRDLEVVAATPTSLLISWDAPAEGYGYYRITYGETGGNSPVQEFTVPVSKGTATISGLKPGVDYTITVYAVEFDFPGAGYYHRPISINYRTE PKE2 10Fn3: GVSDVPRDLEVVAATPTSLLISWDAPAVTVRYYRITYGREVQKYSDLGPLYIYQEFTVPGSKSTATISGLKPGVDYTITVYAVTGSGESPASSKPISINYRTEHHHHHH | rule not met |
| PCSK9-PKE2 tandem 4472_C08 (designed binder, The real molecule is ONE polypeptide: PCSK9 domain, undisclosed linker 'E' (a code letter, not the residue), PKE2 domain. It is given here as two chains because the linker letters are unknown., not shown: The inter-domain linker) PCSK9 domain: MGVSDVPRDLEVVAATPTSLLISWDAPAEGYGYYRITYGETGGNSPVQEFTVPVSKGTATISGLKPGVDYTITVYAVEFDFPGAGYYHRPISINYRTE PKE2 domain: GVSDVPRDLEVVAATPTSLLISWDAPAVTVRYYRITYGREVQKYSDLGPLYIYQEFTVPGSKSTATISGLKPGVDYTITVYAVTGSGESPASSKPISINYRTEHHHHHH | rule met |
| PCSK9-PKE2 tandem 4472_D08 (designed binder, not shown: small tags and cut ends, The two parts are one polypeptide in the real molecule, joined by the undisclosed linker N; they are given here as separate chains.) PCSK9 10Fn3: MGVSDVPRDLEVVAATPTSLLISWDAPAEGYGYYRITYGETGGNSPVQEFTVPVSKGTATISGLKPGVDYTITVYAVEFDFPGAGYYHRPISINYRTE PKE2 10Fn3: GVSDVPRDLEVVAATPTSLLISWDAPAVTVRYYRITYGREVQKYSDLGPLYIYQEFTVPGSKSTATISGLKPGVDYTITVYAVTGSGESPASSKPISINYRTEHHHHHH | rule not met |

# credit: patent US20200048328A1
